Measured values drawn from PubChem BioAssay AID1963868 for this set.

Test system: KRAS PDC tumor spheroids (HUVEC+MSC), viability;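 also: spheroids exposed to compounds for seven days before readout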
PROCEDURE TEXT: Anticancer human tumor 254851-301-R-J1-PDC patient-derived colon carcinoma cell line growth inhibition [KRAS2]
APPLIED CONDITIONS: curve of first compound; second compound 10 µM
MEASURE: IC50 (nM)
State just the number; it will be interpreted in nM.

Below, each entry is followed by its recorded IC50 result.
{"columns": ["MOLECULE", "U", "IC50"],
 "data": [
  ["CC1COCCN1c1cc(-c2ccnn2C)c2ccnc(-c3ccn[nH]3)c2n1 (stereo unspecified) + CC1OCC2(CCN(c3cnc(Sc4ccnc(N)c4Cl)c(N)n3)CC2)C1N", "nM", 152],
  ["Cn1nccc1Nc1nccc(-c2cc3c(s2)C(C)(C)N(CCN2CCOCC2)C3=O)n1 + CC1OCC2(CCN(c3cnc(Sc4ccnc(N)c4Cl)c(N)n3)CC2)C1N", "nM", 422],
  ["CC(C)n1nc(-c2ccc3oc(N)nc3c2)c2c(N)ncnc21 + C=CC(=O)N1CCN(c2nc(=O)n(-c3c(C)ccnc3C(C)C)c3nc(-c4c(O)cccc4F)c(F)cc23)C(C)C1", "nM", 18.1],
  ["Cn1nccc1Nc1nccc(-c2cc3c(s2)C(C)(C)N(CCN2CCOCC2)C3=O)n1 + C=CC(=O)N1CCN(c2nc(=O)n(-c3c(C)ccnc3C(C)C)c3nc(-c4c(O)cccc4F)c(F)cc23)C(C)C1", "nM", 3100],
  ["CC(=O)OC12COC1CC(O)C1(C)C(=O)C(O)C3=C(C)C(OC(=O)C(O)C(NC(=O)OC(C)(C)C)c4ccccc4)CC(O)(C(OC(=O)c4ccccc4)C21)C3(C)C (stereo unspecified) + CC1OCC2(CCN(c3cnc(Sc4ccnc(N)c4Cl)c(N)n3)CC2)C1N", "nM", 58.4],
  ["CC1COCCN1c1cc(-c2ccnn2C)c2ccnc(-c3ccn[nH]3)c2n1 (stereo unspecified) + C=CC(=O)N1CCN(c2nc(=O)n(-c3c(C)ccnc3C(C)C)c3nc(-c4c(O)cccc4F)c(F)cc23)C(C)C1", "nM", 186],
  ["CC(C)n1nc(-c2ccc3oc(N)nc3c2)c2c(N)ncnc21 + CC1OCC2(CCN(c3cnc(Sc4ccnc(N)c4Cl)c(N)n3)CC2)C1N", "nM", 11.3],
  ["CC(C)n1nc(-c2ccc3oc(N)nc3c2)c2c(N)ncnc21 + COc1cc2nc(C)nc(NC(C)c3cc(N)cc(C(F)(F)F)c3)c2cc1OC1CCOC1", "nM", 11.6]
]}

Read the next record carefully.
Per the records, this molecule ( COC(=O)c1ccc2c(C(=Nc3ccc(N(C)C(=O)CN4CCN(C)CC4)cc3)c3ccccc3)c(O)[nH]c2c1 + CC1OCC2(CCN(c3cnc(Sc4ccnc(N)c4Cl)c(N)n3)CC2)C1N ) has IC50 equal to 2370
